B1: Serine/threonine-protein kinase A-Raf, residues 21 to 89; numbered along this chain, P10398 (parent)
chain: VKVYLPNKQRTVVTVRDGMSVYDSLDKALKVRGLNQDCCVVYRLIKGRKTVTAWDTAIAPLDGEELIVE

# Variants of: B1
# PROCEDURE_DETAILS: abundance fitness (aPCA) (normalised: wild type 0, dead -1); higher = more abundant; growth selection in yeast, the domain comes from the species named
# RUN_PARAMETERS: Homo sapiens
PARAMETER: abundance fitness
Give bare numbers.

Previously resolved entries follow.
| VARIANT_NAME | MEASURED_RESULT |
| --- | --- |
| V15N | -0.408 |
| K46Y | -0.41 |

Now, please, on to the next variant.
Q: Please report the recorded abundance fitness for N7M .
Result: -0.406
